assay: growth suppression of beta-catenin knockout HCT116, pilot screen, human colon tumor cells (AID 823); conditions: CellTiter-Glo, 60 h, at 10 µM, active compounds read low;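 note: 0% = wells killed by 20 µM Hyamine and 100% = untreated DMSO cell wells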
Results filed as inconclusive are left out.
assay_endpoint: viability (%)
The response must be a number in % with no trailing unit.

Study these solved cases before continuing.
# compound, assay_endpoint, measured_result
rows = [
    ("O=C(CSc1nc2sc3c(c2c(=O)n1-c1ccccc1)CCCC3)NCc1ccco1", "viability", 53.7),
    ("CCOC(=O)CSc1nc(C)cc(Oc2ccc(=O)n(C)n2)n1", "viability", 102),
    ("CCOC(=O)c1cnn2c(C(F)(F)F)cc(-c3ccccc3)nc12", "viability", 84),
]

Requested field: viability. Item: "COC(=O)c1cc(OC)c(OC)cc1NC(=O)c1c(-c2ccccc2Cl)noc1C"
66.3

Requested field: viability. Item: "N=c1oc2ccccc2cc1-c1nc2ccccc2c(=O)[nH]1"
94.3

Requested field: viability. Item: "COc1ccc(-n2ncc3c(N4CCN(c5cc(C)ccc5C)CC4)ncnc32)cc1"
61.3

Requested field: viability. Item: "Cc1cc(C)nc(NS(=O)(=O)c2ccc(NC(=O)CCCN3C(=O)c4ccccc4C3=O)cc2)n1"
99.6

Requested field: viability. Item: CC(=O)c1cccc(NC(=O)N2CCCC2C(=O)NCc2ccccc2)c1 (centres undefined)
104

Requested field: viability. Item: O=C(c1ccc(NC2=NC3CS(=O)(=O)CC3S2)cc1)N1CCN(C(=O)c2ccco2)CC1 (centres undefined)
104

Requested field: viability. Item: COc1ccc(N2CCC(CNC(=O)Nc3ccc(C)c(C)c3)C2)cc1 (centres undefined)
91.2
